- Test system: HBL 100 (Breast)
- protocol text: MTT cytotoxicity assay, 48 hours (Example 14)
- Type: cell-based, human
- measurement parameters: HBL100, 1 nM
Non-standard residues stand in square brackets, D forms with d. Residues, ends and D or L forms follow the SMILES beside them. *: point of attachment. Octanoyl = CCCCCCCC(=O)*; Ac5c = NC1(C(=O)O)CCCC1; Deg = CCC(N)(CC)C(=O)O; Aib = CC(C)(N)C(=O)O; Butyryl = CCCC(=O)*
measured metric: Percentage cytotoxicity (%)
Give your result in % as a bare value.

Task: # query: Percentage cytotoxicity | item CCCC(=O)N[C@H](Cc1ccccc1)C(=O)N[C@@H](CCC(N)=O)C(=O)N[C@@H](Cc1c[nH]c2ccccc12)C(=O)N[C@@H](C)C(=O)N[C@H](C(=O)NC(C)(C)C(=O)N[C@@H](Cc1c[nH]cn1)C(=O)N[C@@H](CC(C)C)C(N)=O)C(C)C [SEQ ID: 11] (Butyryl-[dF]QWAV[Aib]HL-NH2) | system: HBL 100 (Breast)
Result: 24.3

Task: # query: Percentage cytotoxicity | item CCCCCCCC(=O)N[C@H](Cc1ccccc1)C(=O)N[C@@H](CCC(N)=O)C(=O)N[C@@H](Cc1c[nH]c2ccccc12)C(=O)N[C@@H](C)C(=O)N[C@H](C(=O)NC(C)(C)C(=O)N[C@@H](Cc1c[nH]cn1)C(=O)N[C@@H](CC(C)C)C(N)=O)C(C)C [SEQ ID: 12] (Octanoyl-[dF]QWAV[Aib]HL-NH2) | system: HBL 100 (Breast)
Result: 29.6

Task: # query: Percentage cytotoxicity | item CCC(CC)(NC(=O)[C@H](Cc1c[nH]c2ccccc12)NC(=O)[C@H](CCC(N)=O)NC(=O)[C@H](N)Cc1ccccc1)C(=O)N[C@H](C(=O)NCC(=O)N[C@@H](Cc1c[nH]cn1)C(=O)N[C@@H](CC(C)C)C(N)=O)C(C)C [SEQ ID: 9, D-Phe-Gln-Trp-Deg-Val-Gly-His-Leu-NH2] (H-[dF]QW[Deg]VGHL-NH2; N-terminus assumed) | system: HBL 100 (Breast)
Result: 34.1

Task: # query: Percentage cytotoxicity | item CC(C)C[C@H](NC(=O)[C@H](Cc1c[nH]cn1)NC(=O)C1(NC(=O)[C@@H](NC(=O)[C@H](C)NC(=O)[C@H](Cc2c[nH]c3ccccc23)NC(=O)[C@H](CCC(N)=O)NC(=O)[C@H](N)Cc2ccccc2)C(C)C)CCCC1)C(N)=O [SEQ ID: 10, D-Phe-Gln-Trp-Ala-Val-Ac5c-His-Leu-NH2] (H-[dF]QWAV[Ac5c]HL-NH2; N-terminus assumed) | system: HBL 100 (Breast)
Result: 23.3

====

- System: KB (oral squamous)
- protocol text: MTT cytotoxicity assay, 48 hours (Example 14)
- Type: cell-based, human
- measurement parameters: 1 μM
Non-standard residues stand in square brackets, D forms with d. Residues, ends and D or L forms follow the SMILES beside them. *: point of attachment. Octanoyl = CCCCCCCC(=O)*; Ac5c = NC1(C(=O)O)CCCC1; Deg = CCC(N)(CC)C(=O)O; Aib = CC(C)(N)C(=O)O; Butyryl = CCCC(=O)*
measured metric: Percentage cytotoxicity (%)
Give your result in % as a bare value.

Task: Which Percentage cytotoxicity is reported for this molecule? CC(C)C[C@H](NC(=O)[C@H](Cc1c[nH]cn1)NC(=O)C1(NC(=O)[C@@H](NC(=O)[C@H](C)NC(=O)[C@H](Cc2c[nH]c3ccccc23)NC(=O)[C@H](CCC(N)=O)NC(=O)[C@H](N)Cc2ccccc2)C(C)C)CCCC1)C(N)=O [SEQ ID: 10, D-Phe-Gln-Trp-Ala-Val-Ac5c-His-Leu-NH2] (H-[dF]QWAV[Ac5c]HL-NH2; N-terminus assumed)
Result: 16.5

Task: Which Percentage cytotoxicity is reported for this molecule? CCCCCCCC(=O)N[C@H](Cc1ccccc1)C(=O)N[C@@H](CCC(N)=O)C(=O)N[C@@H](Cc1c[nH]c2ccccc12)C(=O)N[C@@H](C)C(=O)N[C@H](C(=O)NC(C)(C)C(=O)N[C@@H](Cc1c[nH]cn1)C(=O)N[C@@H](CC(C)C)C(N)=O)C(C)C [SEQ ID: 12] (Octanoyl-[dF]QWAV[Aib]HL-NH2)
Result: 12.4

Task: Which Percentage cytotoxicity is reported for this molecule? CCCC(=O)N[C@H](Cc1ccccc1)C(=O)N[C@@H](CCC(N)=O)C(=O)N[C@@H](Cc1c[nH]c2ccccc12)C(=O)N[C@@H](C)C(=O)N[C@H](C(=O)NC(C)(C)C(=O)N[C@@H](Cc1c[nH]cn1)C(=O)N[C@@H](CC(C)C)C(N)=O)C(C)C [SEQ ID: 11] (Butyryl-[dF]QWAV[Aib]HL-NH2)
Result: 24.2

Task: Which Percentage cytotoxicity is reported for this molecule? CCC(CC)(NC(=O)[C@H](Cc1c[nH]c2ccccc12)NC(=O)[C@H](CCC(N)=O)NC(=O)[C@H](N)Cc1ccccc1)C(=O)N[C@H](C(=O)NCC(=O)N[C@@H](Cc1c[nH]cn1)C(=O)N[C@@H](CC(C)C)C(N)=O)C(C)C [SEQ ID: 9, D-Phe-Gln-Trp-Deg-Val-Gly-His-Leu-NH2] (H-[dF]QW[Deg]VGHL-NH2; N-terminus assumed)
Result: 10.4

====

- Test system: PTC (colon)
- protocol text: MTT cytotoxicity assay, 72 hours (Example 13)
- Format: cell-based, human
- measurement parameters: 1 nM
Non-standard residues stand in square brackets, D forms with d. Residues, ends and D or L forms follow the SMILES beside them. Aib = CC(C)(N)C(=O)O
Criterion: Percent Cytotoxicity strictly less than 10%. Met: 1. Not met: 0.

Task: Item CC[C@H](C)[C@H](NC(=O)[C@H](Cc1c[nH]cn1)NC(=O)C(C)(C)NC(=O)[C@@H](NC(=O)[C@H](C)NC(=O)[C@H](Cc1c[nH]c2ccccc12)NC(=O)[C@H](CCC(N)=O)NC(=O)[C@H](N)Cc1ccccc1)C(C)C)C(N)=O [SEQ ID: 7, D-Phe-Gln-Trp-Ala-Val-Aib-His-Ile-NH2] (H-[dF]QWAV[Aib]HI-NH2; N-terminus assumed) : Percent Cytotoxicity beneath 10%, strictly?
Result: 0

Task: Item CC[C@H](C)[C@H](NC(=O)[C@H](Cc1c[nH]cn1)NC(=O)CNC(=O)[C@@H](NC(=O)C(C)(C)NC(=O)[C@H](Cc1c[nH]c2ccccc12)NC(=O)[C@H](CCC(N)=O)NC(=O)[C@H](N)Cc1ccccc1)C(C)C)C(N)=O [SEQ ID: 6, D-Phe-Gln-Trp-Aib-Val-Gly-His-Ile-NH2] (H-[dF]QW[Aib]VGHI-NH2; N-terminus assumed) : Percent Cytotoxicity beneath 10%, strictly?
Result: 1

Task: Item CCCC(CCC)(NC(=O)[C@@H](NC(=O)[C@H](C)NC(=O)[C@@H](Cc1c[nH]c2ccccc12)NC(=O)[C@H](CCC(N)=O)NC(=O)[C@H](N)Cc1ccccc1)C(C)C)C(=O)N[C@@H](Cc1c[nH]cn1)C(=O)N[C@@H](CC(C)C)C(N)=O [SEQ ID: 8, D-Phe-Gln-D-Trp-Ala-Val-Dpg-His-Leu-NH2] : Percent Cytotoxicity beneath 10%, strictly?
Result: 0

Task: Item CC(C)C[C@H](NC(=O)[C@H](Cc1c[nH]cn1)NC(=O)C(C)(C)NC(=O)[C@@H](NC(=O)[C@H](C)NC(=O)[C@@H](Cc1c[nH]c2ccccc12)NC(=O)[C@H](CCC(N)=O)NC(=O)[C@H](N)Cc1ccccc1)C(C)C)C(N)=O [SEQ ID: 5, D-Phe-Gln-D-Trp-Ala-Val-Aib-His-Leu-NH2] (H-[dF]Q[dW]AV[Aib]HL-NH2; N-terminus assumed) : Percent Cytotoxicity beneath 10%, strictly?
Result: 0

Task: Item CC(C)C[C@H](NC(=O)[C@H](Cc1c[nH]cn1)NC(=O)CNC(=O)[C@@H](NC(=O)C(C)(C)NC(=O)[C@H](Cc1c[nH]c2ccccc12)NC(=O)[C@H](CCC(N)=O)NC(=O)[C@H](N)Cc1ccccc1)C(C)C)C(N)=O [SEQ ID: 4, D-Phe-Gln-Trp-Aib-Val-Gly-His-Leu-NH2] (H-[dF]QW[Aib]VGHL-NH2; N-terminus assumed) : Percent Cytotoxicity beneath 10%, strictly?
Result: 1

====

- Test system: L132 (Lung)
- protocol text: MTT cytotoxicity assay, 48 hours (Example 14)
- Type: cell-based
- measurement parameters: L132, 10 pM
Non-standard residues stand in square brackets, D forms with d. Residues, ends and D or L forms follow the SMILES beside them. *: point of attachment. Octanoyl = CCCCCCCC(=O)*; Ac5c = NC1(C(=O)O)CCCC1; Deg = CCC(N)(CC)C(=O)O; Aib = CC(C)(N)C(=O)O; Butyryl = CCCC(=O)*
measured metric: Percentage cytotoxicity (%)
Give your result in % as a bare value.

Task: Which Percentage cytotoxicity is reported for this molecule? CCCC(=O)N[C@H](Cc1ccccc1)C(=O)N[C@@H](CCC(N)=O)C(=O)N[C@@H](Cc1c[nH]c2ccccc12)C(=O)N[C@@H](C)C(=O)N[C@H](C(=O)NC(C)(C)C(=O)N[C@@H](Cc1c[nH]cn1)C(=O)N[C@@H](CC(C)C)C(N)=O)C(C)C [SEQ ID: 11] (Butyryl-[dF]QWAV[Aib]HL-NH2)
Result: 0.5

Task: Which Percentage cytotoxicity is reported for this molecule? CCC(CC)(NC(=O)[C@H](Cc1c[nH]c2ccccc12)NC(=O)[C@H](CCC(N)=O)NC(=O)[C@H](N)Cc1ccccc1)C(=O)N[C@H](C(=O)NCC(=O)N[C@@H](Cc1c[nH]cn1)C(=O)N[C@@H](CC(C)C)C(N)=O)C(C)C [SEQ ID: 9, D-Phe-Gln-Trp-Deg-Val-Gly-His-Leu-NH2] (H-[dF]QW[Deg]VGHL-NH2; N-terminus assumed)
Result: 0.0

Task: Which Percentage cytotoxicity is reported for this molecule? CCCCCCCC(=O)N[C@H](Cc1ccccc1)C(=O)N[C@@H](CCC(N)=O)C(=O)N[C@@H](Cc1c[nH]c2ccccc12)C(=O)N[C@@H](C)C(=O)N[C@H](C(=O)NC(C)(C)C(=O)N[C@@H](Cc1c[nH]cn1)C(=O)N[C@@H](CC(C)C)C(N)=O)C(C)C [SEQ ID: 12] (Octanoyl-[dF]QWAV[Aib]HL-NH2)
Result: 0.0

Task: Which Percentage cytotoxicity is reported for this molecule? CC(C)C[C@H](NC(=O)[C@H](Cc1c[nH]cn1)NC(=O)C1(NC(=O)[C@@H](NC(=O)[C@H](C)NC(=O)[C@H](Cc2c[nH]c3ccccc23)NC(=O)[C@H](CCC(N)=O)NC(=O)[C@H](N)Cc2ccccc2)C(C)C)CCCC1)C(N)=O [SEQ ID: 10, D-Phe-Gln-Trp-Ala-Val-Ac5c-His-Leu-NH2] (H-[dF]QWAV[Ac5c]HL-NH2; N-terminus assumed)
Result: 1.9
